This collection of values is drawn from ChEMBL document CHEMBL2346657.

System: Pseudomonas aeruginosa
experiment_notes: Antimicrobial activity against Pseudomonas aeruginosa MTCC 1688 at 750 ug/ml after 24 hrs by cup plate method
Assay type: functional
study_conditions: MTCC 1688, 24 h, read-out: IZ
Use criterion met when the recorded zone of inhibition at 750 µg/mL is no lower than 8 mm; use criterion not met when it is lower.

compound: Cc1ccc(C2=CC(c3c(-c4ccccc4)[nH]c4ccc(Cl)cc34)c3c(N)n[nH]c3O2)cc1 (stereo not given)
qualitative_label: criterion met

compound: Nc1n[nH]c2c1C(c1c(-c3ccccc3)[nH]c3ccccc13)C=C(c1ccccc1)O2 (stereo not given)
qualitative_label: criterion met

compound: Cc1ccc2[nH]c(-c3ccccc3)c(C3C=C(c4ccc(Cl)cc4)Oc4[nH]c(=S)nc(N)c43)c2c1 (stereo not given)
qualitative_label: criterion met

compound: Nc1nc(=S)[nH]c2c1C(c1c(-c3ccccc3)[nH]c3ccccc13)C=C(c1ccccc1)O2 (stereo not given)
qualitative_label: criterion not met

compound: N#CC1=C(N)OC(c2ccc(Cl)cc2)=CC1c1c(-c2ccccc2)[nH]c2ccc(Cl)cc12 (stereo not given)
qualitative_label: criterion met

compound: Cc1ccc2[nH]c(-c3ccccc3)c(C3C=C(c4ccccc4)OC(N)=C3C#N)c2c1 (stereo not given)
qualitative_label: criterion not met

compound: Cc1ccc2[nH]c(-c3ccccc3)c(C3C=C(c4ccc(Cl)cc4)Oc4[nH]c(=O)nc(N)c43)c2c1 (stereo not given)
qualitative_label: criterion not met

compound: Cc1ccc(C2=CC(c3c(-c4ccccc4)[nH]c4ccc(Cl)cc34)c3c(N)nc(=O)[nH]c3O2)cc1 (stereo not given)
qualitative_label: criterion met

compound: O=c1[nH]cnc2c1C(c1c(-c3ccccc3)[nH]c3ccccc13)C=C(c1ccccc1)O2 (stereo not given)
qualitative_label: criterion not met

compound: Cc1ccc(C2=CC(c3c(-c4ccccc4)[nH]c4ccccc34)c3c(nc[nH]c3=O)O2)cc1 (stereo not given)
qualitative_label: criterion not met

compound: Cc1ccc2[nH]c(-c3ccccc3)c(C3C=C(c4ccccc4)Oc4nc5oc(=O)c(C#N)c(N)c5c(N)c43)c2c1 (stereo not given)
qualitative_label: criterion not met

compound: Cc1ccc(C2=CC(c3c(-c4ccccc4)[nH]c4ccc(C)cc34)C(C#N)=C(N)O2)cc1 (stereo not given)
qualitative_label: criterion met

compound: Nc1nc(=O)[nH]c2c1C(c1c(-c3ccccc3)[nH]c3ccccc13)C=C(c1ccccc1)O2 (stereo not given)
qualitative_label: criterion met

compound: Cc1ccc(C2=CC(c3c(-c4ccccc4)[nH]c4ccc(Cl)cc34)C(C#N)=C(N)O2)cc1 (stereo not given)
qualitative_label: criterion not met

compound: Nc1n[nH]c2c1C(c1c(-c3ccccc3)[nH]c3ccc(Cl)cc13)C=C(c1ccccc1)O2 (stereo not given)
qualitative_label: criterion met

compound: Cc1ccc(C2=CC(c3c(-c4ccccc4)[nH]c4ccc(C)cc34)c3c(N)n[nH]c3O2)cc1 (stereo not given)
qualitative_label: criterion not met

compound: Cc1ccc2[nH]c(-c3ccccc3)c(C3C=C(c4ccccc4)Oc4nc[nH]c(=O)c43)c2c1 (stereo not given)
qualitative_label: criterion not met

compound: Cc1ccc2[nH]c(-c3ccccc3)c(C3C=C(c4ccc(Cl)cc4)Oc4nc5oc(=O)c(C#N)c(N)c5c(N)c43)c2c1 (stereo not given)
qualitative_label: criterion met

compound: Cc1ccc(C2=CC(c3c(-c4ccccc4)[nH]c4ccccc34)c3c(nc4oc(=O)c(C#N)c(N)c4c3N)O2)cc1 (stereo not given)
qualitative_label: criterion not met

compound: CN[C@@H]1[C@H](O[C@H]2[C@H](O[C@H]3[C@H](O)[C@@H](O)[C@H](N=C(N)N)[C@@H](O)[C@@H]3N=C(N)N)O[C@@H](C)[C@]2(O)C=O)O[C@@H](CO)[C@H](O)[C@H]1O
qualitative_label: criterion met

compound: Nc1nc(=S)[nH]c2c1C(c1c(-c3ccccc3)[nH]c3ccccc13)C=C(c1ccc(Cl)cc1)O2 (stereo not given)
qualitative_label: criterion met

compound: Cc1ccc(C2=CC(c3c(-c4ccccc4)[nH]c4ccc(C)cc34)c3c(N)nc(=S)[nH]c3O2)cc1 (stereo not given)
qualitative_label: criterion not met

compound: Nc1nc(=S)[nH]c2c1C(c1c(-c3ccccc3)[nH]c3ccc(Cl)cc13)C=C(c1ccc(Cl)cc1)O2 (stereo not given)
qualitative_label: criterion met

compound: N#Cc1c(N)c2c(N)c3c(nc2oc1=O)OC(c1ccc(Cl)cc1)=CC3c1c(-c2ccccc2)[nH]c2ccccc12 (stereo not given)
qualitative_label: criterion met

compound: Cc1ccc(C2=CC(c3c(-c4ccccc4)[nH]c4ccccc34)c3c(N)nc(=O)[nH]c3O2)cc1 (stereo not given)
qualitative_label: criterion not met
